biological target: Interstitial collagenase (Homo sapiens, UniProt P03956)
Sequence (P03956 whole entry): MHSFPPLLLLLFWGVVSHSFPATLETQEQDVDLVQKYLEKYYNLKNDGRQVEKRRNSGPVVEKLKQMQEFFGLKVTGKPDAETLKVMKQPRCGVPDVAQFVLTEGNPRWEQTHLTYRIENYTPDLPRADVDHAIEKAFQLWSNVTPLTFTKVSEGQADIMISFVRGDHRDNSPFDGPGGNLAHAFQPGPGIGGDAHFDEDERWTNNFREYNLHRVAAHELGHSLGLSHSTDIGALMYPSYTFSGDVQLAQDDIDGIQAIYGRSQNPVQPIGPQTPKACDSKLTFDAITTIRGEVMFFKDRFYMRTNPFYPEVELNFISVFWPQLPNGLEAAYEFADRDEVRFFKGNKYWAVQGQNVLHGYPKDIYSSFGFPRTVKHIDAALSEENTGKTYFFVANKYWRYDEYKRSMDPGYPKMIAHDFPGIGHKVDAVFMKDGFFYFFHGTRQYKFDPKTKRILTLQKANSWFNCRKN
pIC50: −log10 of the molar value.
readout_kind: pIC50

Challenge: Write down the reported pIC50 of CC(C)CC(CC(=O)NO)C(=O)N[C@H]1CCCCNCCCCCNC1=O (stereo in doubt; 17a) , test system: Interstitial collagenase (Homo sapiens, UniProt P03956).
Response given: 7.92

1. CC[C@H](N[C@@H](CC(C)C)C(=O)NC1CCCCNCCCCCCNC1=O)P(=O)(O)O (some centres undefined)
2. CC(C)CC(C(=O)NC1CCCCNCCCCCNC1=O)[C@@H](S)CC(=O)OC(C)C (some centres undefined)
Challenge: Identify the item whose pIC50 is the smaller number: 1 or 2 Answer with the label corresponding to your selection.
Response given: 1
(1: 6.51, 2: 7.36)
